Test system: P. falciparum apicoplast DNA polymerase (Pf-apPOL) (Plasmodium falciparum)
Test summary: Fluorescence-based high-throughput DNA polymerase assay (molecular beacon), primary screen and dose-response
Format: biochemical
Test context: DRC-1; 180'; conc 20
For each of the compounds below, state its % inhibition apPOL 180'.
Give bare numbers, in %.

A selection of reference data follows.
> print(dat)
                                   compound             readout.kind  value.measured
1       O=c1nc(/C=C/c2ccc(Br)cc2)oc2ccccc12  % inhibition apPOL 180'          4.7876
2  C=CC1=C(C)c2cc3[nH]c(cc4nc(cc5[nH]c(cc1n2)c(C)c5CCC(=O)O)C(CCC(=O)O)=C4C)c(C)c3C=C  % inhibition apPOL 180'         96.2534
3  Cc1ccc(NC(=O)Cn2ccc3c(=O)[nH]ccc32)c(C)c1  % inhibition apPOL 180'         18.6019
4   O=C1Nc2ccc(I)cc2C1=Cc1cc(Br)c(O)c(Br)c1  % inhibition apPOL 180'         53.0871
5  COc1ccccc1C1CC(=O)Oc2cc3c(cc21)OCO3 (stereo not shown)  % inhibition apPOL 180'         38.0211
6  COC(=O)c1sc(-c2ccc(C(C)(C)C)cc2)cc1NC(=O)CCC(=O)O  % inhibition apPOL 180'         75.8676
7  CCOc1nc2cccc(C(=O)OC(C)OC(=O)OC3CCCCC3)c2n1Cc1ccc(-c2ccccc2-c2nnn[nH]2)cc1 (stereo not shown)  % inhibition apPOL 180'         87.4687
8    C=CCOc1c(Br)cc(Br)cc1/C=C1\SC(=N)NC1=O  % inhibition apPOL 180'         26.8822
9  Cc1ccc(CNC(=O)c2cnn3c(O)cc(CSc4ccc(Cl)cc4)nc23)cc1  % inhibition apPOL 180'         80.2247

Consider the additional compound presented here.
Record request: % inhibition apPOL 180' value, item `N#CC(C#N)=C1SCN(c2cccc(Cl)c2)CS1`
81.5285

###

Test system: P. falciparum apicoplast DNA polymerase (Pf-apPOL) (Plasmodium falciparum, UniProt Q8ILY1)
Sequence (Q8ILY1 entry or part of it): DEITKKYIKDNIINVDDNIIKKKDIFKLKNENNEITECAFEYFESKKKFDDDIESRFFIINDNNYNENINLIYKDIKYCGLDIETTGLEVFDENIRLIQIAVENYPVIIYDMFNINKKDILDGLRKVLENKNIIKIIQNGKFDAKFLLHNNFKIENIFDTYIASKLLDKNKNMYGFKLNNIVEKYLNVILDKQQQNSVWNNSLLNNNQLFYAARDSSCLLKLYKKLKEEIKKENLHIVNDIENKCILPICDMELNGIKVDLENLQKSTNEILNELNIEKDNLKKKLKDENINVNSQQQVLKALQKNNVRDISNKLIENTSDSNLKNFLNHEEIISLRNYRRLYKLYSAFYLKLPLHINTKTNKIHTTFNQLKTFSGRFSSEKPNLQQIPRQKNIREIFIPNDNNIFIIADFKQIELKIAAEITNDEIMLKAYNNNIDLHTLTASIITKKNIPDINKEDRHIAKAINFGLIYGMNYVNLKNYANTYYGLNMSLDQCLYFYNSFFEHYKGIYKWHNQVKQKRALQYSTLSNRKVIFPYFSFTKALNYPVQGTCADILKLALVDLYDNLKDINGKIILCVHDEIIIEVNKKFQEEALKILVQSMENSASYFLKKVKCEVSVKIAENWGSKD
Test summary: Fluorescence-based high-throughput DNA polymerase assay (molecular beacon), primary screen and dose-response;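 as to % inhibition Apol 40': compound concentration given in µM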
Assay type: biochemical
Test context: DRC-2, 40', concentration 5
Outcome: criterion met for % inhibition Apol 40' of at least 9%; criterion not met for anything lower.

Some solved cases for reference:
> print(dat)
                                   molecule                               test.system       answer.label
1  O=C(NNC(=O)C(F)(F)Sc1ccccc1)c1ccsc1 [Molecule 68, O=C(C(Sc1ccccc1)(F)F)NNC(=O)c1cscc1]  P. falciparum apicoplast DNA polymerase (Pf-apPOL) (Plasmodium falciparum, UniProt Q8ILY1)  criterion not met
2  O=C(O)CC1=NN(c2cccc([N+](=O)[O-])c2)C(=O)C1 [KU0100531]  P. falciparum apicoplast DNA polymerase (Pf-apPOL) (Plasmodium falciparum, UniProt Q8ILY1)      criterion met
3  CN(C)C=CC(=O)c1ccccn1 [Molecule 64, CN(C=CC(=O)c1ccccn1)C]  P. falciparum apicoplast DNA polymerase (Pf-apPOL) (Plasmodium falciparum, UniProt Q8ILY1)      criterion met

Hello, I need to know if CN(C)C=C1SCc2ccccc2C1=O [Molecule 77, CN(C=C1SCc2c(C1=O)cccc2)C] has measured % inhibition Apol 40' not below 9%. Thanks!
criterion not met

Hello, I need to know if O=C(c1c[nH]c2ncccc12)N1CCCCCC1 [Molecule 51, O=C(c1c[nH]c2c1cccn2)N1CCCCCC1] has measured % inhibition Apol 40' not below 9%. Thanks!
criterion not met

Hello, I need to know if O=c1cc(-c2ccccc2)oc2c(O)c(O)ccc12 [Molecule 84, Oc1ccc2c(c1O)oc(cc2=O)c1ccccc1] has measured % inhibition Apol 40' not below 9%. Thanks!
criterion met

Hello, I need to know if Oc1ccc(N=Nc2ccccc2)c(O)c1 [Molecule 80, Oc1ccc(c(c1)O)N=Nc1ccccc1] has measured % inhibition Apol 40' not below 9%. Thanks!
criterion not met

###

For each of the compounds below, state its % inhibition ApPOL 90'.
Test system: P. falciparum apicoplast DNA polymerase (Pf-apPOL) (Plasmodium falciparum, UniProt Q8ILY1)
Test summary: Fluorescence-based high-throughput DNA polymerase assay (molecular beacon), primary screen and dose-response;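 as to % inhibition ApPOL 90': test concentration in µM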
Type: biochemical
Test context: conc. 20; 90'; DRC-2
Excerpt: The HT assay employs a molecular beacon, a stem-loop DNA template with a Cy3 dye and the Black Hole Quencher on the 3′ and 5′ ends of the DNA, respectively. Pf-apPOL concentration is based on a calculated absorptivity of ε280 = 56750 M^−1 cm^−1. […] To identify apPOL inhibitors we utilised our previously developed high-throughput DNA polymerase assay. […] The assay accurately recapitulates the kinetic behaviour of apPOL, as measured through more conventional low-throughput gel-based assays. […]
Answer format: value, then unit.

A selection of reference data follows.
> print(dat)
                                   compound  value.measured
1  O=C(CSc1nc2ccccc2s1)Nc1ncc([N+](=O)[O-])s1 [KU0019667]            -23%
2  O=C1NCCCn2cc(S(=O)(=O)Nc3ccccc3)cc21 [KU0214835]             44%
3  Cc1cc(C)cc(-n2nc3c(c2NC(=O)c2ccco2)CSC3)c1 [KU0055926]             60%

Required: % inhibition ApPOL 90', one value per compound below.
1. O=C(NCC1CCN(C2CCCC2)CC1)C(=O)NC1CCCC1 [KU0199596]
2. O=C(O)c1cccc(N2N=C(C(F)(F)F)/C(=C/c3ccc(-c4ccccc4[N+](=O)[O-])o3)C2=O)c1 [Molecule 100]

30%
65%

###

Test system: bacteriophage T4 DNA polymerase (Enterobacteria phage T4, UniProt P04415)
Construct: made in house
Sequence (P04415 1-898): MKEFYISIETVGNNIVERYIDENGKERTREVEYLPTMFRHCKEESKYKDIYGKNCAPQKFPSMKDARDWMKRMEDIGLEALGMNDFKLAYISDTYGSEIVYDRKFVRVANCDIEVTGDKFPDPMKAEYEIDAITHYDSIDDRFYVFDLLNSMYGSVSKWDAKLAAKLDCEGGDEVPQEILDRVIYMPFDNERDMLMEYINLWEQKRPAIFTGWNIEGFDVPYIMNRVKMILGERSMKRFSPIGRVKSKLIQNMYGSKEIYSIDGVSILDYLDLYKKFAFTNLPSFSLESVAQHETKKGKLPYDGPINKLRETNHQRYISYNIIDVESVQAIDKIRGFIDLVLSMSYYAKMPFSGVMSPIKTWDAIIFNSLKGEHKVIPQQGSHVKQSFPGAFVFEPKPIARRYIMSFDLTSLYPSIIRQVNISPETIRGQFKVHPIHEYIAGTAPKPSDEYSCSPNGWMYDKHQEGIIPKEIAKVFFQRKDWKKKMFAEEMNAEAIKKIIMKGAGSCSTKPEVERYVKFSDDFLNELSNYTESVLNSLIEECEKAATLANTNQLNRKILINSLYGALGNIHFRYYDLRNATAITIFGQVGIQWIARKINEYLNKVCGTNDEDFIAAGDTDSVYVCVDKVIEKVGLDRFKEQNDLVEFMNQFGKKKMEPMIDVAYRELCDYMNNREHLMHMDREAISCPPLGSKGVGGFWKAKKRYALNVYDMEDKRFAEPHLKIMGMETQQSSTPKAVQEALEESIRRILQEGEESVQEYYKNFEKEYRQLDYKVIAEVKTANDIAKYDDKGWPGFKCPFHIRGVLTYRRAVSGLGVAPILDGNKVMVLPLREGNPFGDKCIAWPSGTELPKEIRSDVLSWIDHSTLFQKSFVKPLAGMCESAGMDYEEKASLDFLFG
Test summary: Counter-screen against bacteriophage T4 DNA polymerase
Assay type: biochemical
Test context: DRC-2; read at 10'; concentration 2.5
Readout kind: % inhibition T4 10' 2.5 (%)
Give bare numbers, in %.

A selection of reference data follows.
> print(dat)
                                   compound  unit.text  value.measured
1  C#CC(C=CC)OC(=O)c1ccccc1C(=O)O (stereo not drawn) [Molecule 61, CC=CC(OC(=O)c1ccccc1C(=O)O)C#C]          %            -4.4
2  COc1ccccc1CC(=O)N1CCc2c(nc3cc(-c4ccccc4Cl)[nH]n3c2=O)C1 [Molecule 49]          %              -1

Consider the additional compound presented here.
Record request: % inhibition T4 10' 2.5 value, item O=C1CSC2=NC3=C(CCc4ccccc43)C(c3cccs3)N12 (stereo not drawn) [Molecule 59, O=C1CSC2=NC3=C(C(N12)c1cccs1)CCc1c3cccc1]
31
